B1: CPEB3 Ribozyme (parent)
chain: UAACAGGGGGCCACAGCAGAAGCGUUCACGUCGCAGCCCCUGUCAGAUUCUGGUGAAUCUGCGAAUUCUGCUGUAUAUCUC

- Variants of: B1
- PROTOCOL NOTES: self-cleavage, relative activity (ratio to wild type); higher = more cleavage; in vitro, sequencing
Outcome label depends on self-cleavage relative to 0.3: at/above gives Criterion met, below gives Criterion not met.

Task item: Hi, just wondering whether G33C U48A shows self-cleavage of 0.3 or higher.
Reply: Criterion not met

Task item: Ok, now A15G G53U
Reply: Criterion met

Task item: Ok, now C12U U25G
Reply: Criterion met

Task item: Ok, now A18G U60A
Reply: Criterion met

Task item: Ok, now A2U U51C
Reply: Criterion met

Task item: Ok, now A5U U41C
Reply: Criterion met

Task item: Ok, now A18U U58A
Reply: Criterion not met

Task item: Ok, now A13G U54A
Reply: Criterion met

Task item: Ok, now A57G A65U
Reply: Criterion met

Task item: Ok, now A18G C32A
Reply: Criterion not met

Continuing:
Task item: Hi, just wondering whether U60A A75U shows self-cleavage of 0.3 or higher.
Reply: Criterion met

Task item: Ok, now G24C U54C
Reply: Criterion not met

Task item: Ok, now G6U C79A
Reply: Criterion met

Values from the RNAGym collection of RNA variant scans (doi:10.1093/nar/gkz1192)
